# conditionLabel: in 2-butanone, 323.15 K
observable: solubility (mole fraction)
Response field accepts a number only; no unit should be typed.

Requested read-out: solubility (mole fraction). Entry: "c1ccc2[nH]cnc2c1"
0.0664

###

# conditionLabel: in isopropanol, 323.15 K
observable: solubility (mole fraction)
Response field accepts a number only; no unit should be typed.

Requested read-out: solubility (mole fraction). Entry: "c1ccc2[nH]cnc2c1"
0.134

###

# conditionLabel: in n-butanol, 308.15 K
observable: solubility (mole fraction)
Response field accepts a number only; no unit should be typed.

Requested read-out: solubility (mole fraction). Entry: "c1ccc2[nH]cnc2c1"
0.13

###

# conditionLabel: in methyl acetate, 313.15 K
observable: solubility (mole fraction)

Requested read-out: solubility (mole fraction). Entry: "c1ccc2[nH]cnc2c1"
0.0198

###

# conditionLabel: in 1,4-dioxane, 318.15 K
observable: solubility (mole fraction)
Response field accepts a number only; no unit should be typed.

Requested read-out: solubility (mole fraction). Entry: "c1ccc2[nH]cnc2c1"
0.0321

###

# conditionLabel: in n-propyl acetate, 293.15 K
observable: solubility (mole fraction)
Response field accepts a number only; no unit should be typed.

Requested read-out: solubility (mole fraction). Entry: "c1ccc2[nH]cnc2c1"
0.009

###

# conditionLabel: in n-propanol, 288.15 K
observable: solubility (mole fraction)
Response field accepts a number only; no unit should be typed.

Requested read-out: solubility (mole fraction). Entry: "c1ccc2[nH]cnc2c1"
0.0896

###

# conditionLabel: in isobutyl acetate, 308.15 K
observable: solubility (mole fraction)

Requested read-out: solubility (mole fraction). Entry: "c1ccc2[nH]cnc2c1"
0.0137

###

# conditionLabel: in methanol, 288.15 K
observable: solubility (mole fraction)
Response field accepts a number only; no unit should be typed.

Requested read-out: solubility (mole fraction). Entry: "c1ccc2[nH]cnc2c1"
0.097

###

# conditionLabel: in water, 313.15 K
observable: solubility (mole fraction)
Response field accepts a number only; no unit should be typed.

Requested read-out: solubility (mole fraction). Entry: "c1ccc2[nH]cnc2c1"
0.00133

###

# conditionLabel: in water, 293.15 K
observable: solubility (mole fraction)

Requested read-out: solubility (mole fraction). Entry: "c1ccc2[nH]cnc2c1"
0.000739

###

# conditionLabel: in methyl acetate, 308.15 K
observable: solubility (mole fraction)
Response field accepts a number only; no unit should be typed.

Requested read-out: solubility (mole fraction). Entry: "c1ccc2[nH]cnc2c1"
0.0167

###

# conditionLabel: in n-butanol, 283.15 K
observable: solubility (mole fraction)
Response field accepts a number only; no unit should be typed.

Requested read-out: solubility (mole fraction). Entry: "c1ccc2[nH]cnc2c1"
0.0857

###

# conditionLabel: in water, 318.15 K
observable: solubility (mole fraction)
Response field accepts a number only; no unit should be typed.

Requested read-out: solubility (mole fraction). Entry: "c1ccc2[nH]cnc2c1"
0.00156

###

# conditionLabel: in acetone, 283.15 K
observable: solubility (mole fraction)

Requested read-out: solubility (mole fraction). Entry: "c1ccc2[nH]cnc2c1"
0.0192

###

# conditionLabel: in n-butanol, 318.15 K
observable: solubility (mole fraction)

Requested read-out: solubility (mole fraction). Entry: "c1ccc2[nH]cnc2c1"
0.15

###

# conditionLabel: in n-butanol, 298.15 K
observable: solubility (mole fraction)
Response field accepts a number only; no unit should be typed.

Requested read-out: solubility (mole fraction). Entry: "c1ccc2[nH]cnc2c1"
0.113

FYI, the data here is from BigSolDB 2.1.
